Target: T1, human TF ECD-His6 (human, UniProt P13726 33-251)
T1 construct: made in Expi293 cells; the entry holds the ECD with the C-terminal TG-His6; also called TF-His; hTF
Assay: BLI (ForteBio Octet)

{"binder": "25G1 (antibody, human IgG1, kappa, V domains shown, human IgG1) VH: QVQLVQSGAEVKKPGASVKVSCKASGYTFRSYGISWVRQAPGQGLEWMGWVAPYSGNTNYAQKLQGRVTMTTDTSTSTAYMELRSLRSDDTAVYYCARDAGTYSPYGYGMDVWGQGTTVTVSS VL: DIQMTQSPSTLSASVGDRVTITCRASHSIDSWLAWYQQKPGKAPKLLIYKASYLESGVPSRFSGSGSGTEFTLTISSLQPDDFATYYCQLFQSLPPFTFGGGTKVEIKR", "Kd (nM)": 3.97}
{"binder": "25A3 (antibody, human IgG1, kappa, V domains shown, human IgG1) VH: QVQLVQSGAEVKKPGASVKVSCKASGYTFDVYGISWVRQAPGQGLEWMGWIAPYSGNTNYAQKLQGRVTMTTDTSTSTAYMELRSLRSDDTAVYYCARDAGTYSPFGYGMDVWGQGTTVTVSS VL: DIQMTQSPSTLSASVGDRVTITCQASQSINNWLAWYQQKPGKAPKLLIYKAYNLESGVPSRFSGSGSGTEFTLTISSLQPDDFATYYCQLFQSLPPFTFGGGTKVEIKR", "Kd (nM)": 1.67}
{"binder": "25A5 (antibody, human IgG1, kappa, V domains shown, human IgG1) VH: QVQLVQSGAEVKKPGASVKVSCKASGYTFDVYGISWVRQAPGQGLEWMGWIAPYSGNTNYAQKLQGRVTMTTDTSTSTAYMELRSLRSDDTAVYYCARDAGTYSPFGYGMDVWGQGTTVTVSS VL: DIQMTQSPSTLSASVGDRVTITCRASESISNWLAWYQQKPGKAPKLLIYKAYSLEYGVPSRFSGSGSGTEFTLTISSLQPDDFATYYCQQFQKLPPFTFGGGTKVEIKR", "Kd (nM)": 0.64}
{"binder": "54E (antibody, human IgG1, V domains shown, human IgG1) VH: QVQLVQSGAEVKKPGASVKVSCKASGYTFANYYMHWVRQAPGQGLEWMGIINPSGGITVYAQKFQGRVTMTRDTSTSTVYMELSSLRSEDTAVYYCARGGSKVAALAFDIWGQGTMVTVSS VL: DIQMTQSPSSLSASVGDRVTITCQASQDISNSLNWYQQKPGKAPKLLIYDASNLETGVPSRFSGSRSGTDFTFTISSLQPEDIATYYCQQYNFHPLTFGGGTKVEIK", "Kd (nM)": 1.59}
{"binder": "39A (antibody, human IgG1, V domains shown, human IgG1) VH: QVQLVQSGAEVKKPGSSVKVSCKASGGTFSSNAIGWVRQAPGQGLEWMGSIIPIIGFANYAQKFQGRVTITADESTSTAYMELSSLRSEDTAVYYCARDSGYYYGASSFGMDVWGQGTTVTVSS VL: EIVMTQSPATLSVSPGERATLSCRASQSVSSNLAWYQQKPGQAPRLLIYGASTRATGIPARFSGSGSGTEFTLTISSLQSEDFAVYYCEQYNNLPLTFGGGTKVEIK", "Kd (nM)": 0.83}
